Test system: HEK-293T
Assay: Multiplex assay against HEK293T
Assay type: toxicity, cell-based
Settings: human, 24 h, 10 µM, compound concentration 10 uM, replicate 2
Mark each entry y if its Population Normal (%) sits below 90%, and n for all others.

{"compound": "Cc1cccc(CN2CCN(C(c3ccccc3)c3ccc(Cl)cc3)CC2)c1.Cl.Cl (stereo not drawn)", "label_class": "n"}
{"compound": "O=c1[nH]c2ccccc2n1C1CCN(Cc2ccc(-c3[nH]c4cc5ncnc5cc4nc3-c3ccccc3)cc2)CC1", "label_class": "y"}
{"compound": "CN1CCN(Cc2ccc(Nc3ncc(Cl)c(Nc4ccccc4S(=O)(=O)N(C)C)n3)cc2)CC1", "label_class": "n"}
{"compound": "COC(=O)C1=C(C)NC(C)=C(C(=O)OCCCN2CCC(c3ccccc3)(c3ccccc3)CC2)[C@H]1c1cccc([N+](=O)[O-])c1", "label_class": "n"}

Task item: Strictly below 90%: is that where Population Normal (%) of COc1ccc(-c2ccc3ncc4c(c3c2)n(-c2ccc(N3CCNCC3)c(C(F)(F)F)c2)c(=O)n4C)cn1.O=C(O)/C=C\C(=O)O sits?
Reply: y

Task item: Would you kindly repeat that for C=CC(=O)Nc1cccc(Oc2nc(Nc3ccc(N4CCN(C)CC4)cc3OC)ncc2Cl)c1 ?
Reply: n

###

Tested on: U2OS
Assay: Multiplex assay against U2OS
Format: toxicity, cell-based
Conditions: human, 48 h, 10 µM, compound concentration 10 uM, replicate 2
Answer 0 (no) if Population Mitochondria Different-Phenotype (%) is under 30%, and 1 (yes) if it is 30% or more.

Record excerpt, results attached:
{"molecule": "COc1ccccc1CN[C@H]1C2CCN(CC2)[C@H]1C(c1ccccc1)c1ccccc1", "label_class": "0 (no)"}
{"molecule": "COC(=O)C1=C(C)NC(C)=C(C(=O)OCCCN2CCC(c3ccccc3)(c3ccccc3)CC2)[C@H]1c1cccc([N+](=O)[O-])c1", "label_class": "1 (yes)"}

Task item: Please indicate if the recorded Population Mitochondria Different-Phenotype (%) for COc1cc2ncn(-c3cc(OCc4ccccc4C(F)(F)F)c(C(N)=O)s3)c2cc1OC [GW843682X] meets or exceeds 30%.
Reply: 1 (yes)

Task item: Would you kindly repeat that for CC1=C(C(=O)Nc2cc3cn[nH]c3cc2F)C(c2ccc(C(F)(F)F)cc2)CC(=O)N1 (configuration not stated) ?
Reply: 0 (no)

Task item: Would you kindly repeat that for CC(C)Oc1ccccc1C(=O)Nc1ccccc1C(=O)Nc1cccc(S(=O)(=O)C(F)(F)F)c1 ?
Reply: 1 (yes)

Task item: Would you kindly repeat that for CCOC(=O)Nc1cc(-c2ccc(C)c(NS(C)(=O)=O)c2)nn2c(C)nnc12 ?
Reply: 0 (no)

###

Test system: HEK-293T
Assay: Multiplex assay against HEK293T
Format: toxicity, cell-based
Conditions: human, 48 h, 1 µM, compound concentration 1 uM, replicate 2
Mark each entry True if its Population Mitochondria Different-Phenotype (%) sits below 6%, and False for all others.

{"compound": "COc1ccccc1CN[C@H]1C2CCN(CC2)[C@H]1C(c1ccccc1)c1ccccc1 [CP-96345]", "test_system": "HEK-293T", "label_class": "True"}

Task item: Strictly below 6%: is that where Population Mitochondria Different-Phenotype (%) of CCc1ccc(OCc2ccccc2C(=O)Nc2ccc3nc(C)cc(N)c3c2)cc1.Cl sits?
Reply: False

Task item: Would you kindly repeat that for C[C@]12CC[C@@H]3c4ccc(O)cc4CC[C@H]3[C@@H]1CC[C@@H]2O [ESTRADIOL] ?
Reply: True

Task item: Would you kindly repeat that for CN1CCN(Cc2ccc(Nc3ncc(Cl)c(Nc4ccccc4S(=O)(=O)N(C)C)n3)cc2)CC1 [DUBERMATINIB] ?
Reply: True
